Each item that follows carries a reported inhibition.
- measurement.notes: PAX8 transcriptional activity inhibition in RMG-I – RMG-I cells, luciferase, single concentration, primary screen (AID 652154);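 note: luciferase light reporting Pax8 driven TPO promoter activity; plate controls were median of neutral control wells for no effect and mitoxantrone controls for full effect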
- condition: RMG-I TPO-luciferase reporter, SteadyGlo, 24 h; at 12.6 µM; hits give high values
Among all 360,000 compounds or so, about 4,200 (1.2%) were called active. The sample holds actives, similar compounds and a random draw of the others, so the mix is not that of the screen.

>  <compound>
C[C@H]1CCCCO[C@H](CN(C)C)[C@@H](C)CN([C@@H](C)CO)C(=O)c2cc(NC(=O)CCCN(C)C)ccc2O1

>  <inhibition (%)>
-13.7

$$$$
>  <compound>
Cc1ccc(S(=O)(=O)N(C)C[C@@H]2Oc3c(NC(=O)c4ccncc4)cccc3C(=O)N([C@@H](C)CO)C[C@@H]2C)cc1

>  <inhibition (%)>
1.41

$$$$
>  <compound>
CC1CCCCC1NC(=O)COc1ccc(C#N)cc1 (stereo unspecified)

>  <inhibition (%)>
-9.56

$$$$
>  <compound>
C[C@@H]1CN([C@@H](C)CO)C(=O)Cc2cc(NC(=O)Nc3ccc(F)cc3)ccc2O[C@@H]1CN(C)C

>  <inhibition (%)>
-0.58

$$$$
>  <compound>
C[C@@H]1CN([C@H](C)CO)S(=O)(=O)c2ccc(C#CC3CCCC3)cc2O[C@@H]1CN(C)Cc1cccnc1

>  <inhibition (%)>
31.1

$$$$
>  <compound>
O=C(c1ccncc1)N1CC(=O)N2[C@H](CO)[C@@H](c3ccc(-c4cccnc4)cc3)[C@H]2C1

>  <inhibition (%)>
7.54

$$$$
>  <compound>
CCC(=O)N(C)C[C@H]1[C@H](c2ccc(C3=CCCCC3)cc2)[C@@H](CO)N1C(C)=O

>  <inhibition (%)>
-0.343

$$$$
>  <compound>
COc1ccccc1C#Cc1ccc2c(c1)O[C@@H](CN(C)Cc1cncnc1)[C@H](C)CN([C@@H](C)CO)S2(=O)=O

>  <inhibition (%)>
74.3

$$$$
>  <compound>
O=C(Nc1ccccc1)N[C@@H]1CC[C@H](CCNS(=O)(=O)c2ccccc2F)O[C@@H]1CO

>  <inhibition (%)>
-8.59

$$$$
>  <compound>
CC(OC(=O)/C=C/c1ccccc1)C(=O)NC1CCCCC1C (stereo unspecified)

>  <inhibition (%)>
-9.75

$$$$
>  <compound>
O=C(Nc1cc(F)ccc1F)N[C@H]1CC[C@@H](CCn2cc(C3CCCC3)nn2)O[C@@H]1CO

>  <inhibition (%)>
5.81

$$$$
>  <compound>
Cc1ccccc1-c1ccc([C@@H]2[C@@H](CO)N3CCCCN(C(=O)Nc4cccc(F)c4)C[C@H]23)cc1

>  <inhibition (%)>
10.4

$$$$
>  <compound>
COCC#Cc1ccc2c(c1)O[C@@H](CN(C)Cc1cccnc1)[C@@H](C)CN([C@H](C)CO)S2(=O)=O

>  <inhibition (%)>
-14.2

$$$$
>  <compound>
C[C@@H]1CN([C@@H](C)CO)S(=O)(=O)c2ccc(/C=C/c3ccccc3)cc2O[C@H]1CN(C)Cc1ccccc1

>  <inhibition (%)>
11.4

$$$$
>  <compound>
C[C@@H]1CN([C@H](C)CO)C(=O)Cc2cc(NC(=O)CCCN(C)C)ccc2O[C@@H]1CN(C)Cc1ccc(Oc2ccccc2)cc1

>  <inhibition (%)>
-19.4

$$$$
>  <compound>
CC(C)NC(=O)Nc1ccc2c(c1)C(=O)N([C@H](C)CO)C[C@H](C)[C@H](CN(C)Cc1ccc(C(=O)O)cc1)OCCCC[C@@H](C)O2

>  <inhibition (%)>
2.34

$$$$
